Reference source: patent US4954502A

# tested on: serotonin uptake (Rattus norvegicus, UniProt P31652)
# Construct: from tissue
# Sequence (P31652 whole entry): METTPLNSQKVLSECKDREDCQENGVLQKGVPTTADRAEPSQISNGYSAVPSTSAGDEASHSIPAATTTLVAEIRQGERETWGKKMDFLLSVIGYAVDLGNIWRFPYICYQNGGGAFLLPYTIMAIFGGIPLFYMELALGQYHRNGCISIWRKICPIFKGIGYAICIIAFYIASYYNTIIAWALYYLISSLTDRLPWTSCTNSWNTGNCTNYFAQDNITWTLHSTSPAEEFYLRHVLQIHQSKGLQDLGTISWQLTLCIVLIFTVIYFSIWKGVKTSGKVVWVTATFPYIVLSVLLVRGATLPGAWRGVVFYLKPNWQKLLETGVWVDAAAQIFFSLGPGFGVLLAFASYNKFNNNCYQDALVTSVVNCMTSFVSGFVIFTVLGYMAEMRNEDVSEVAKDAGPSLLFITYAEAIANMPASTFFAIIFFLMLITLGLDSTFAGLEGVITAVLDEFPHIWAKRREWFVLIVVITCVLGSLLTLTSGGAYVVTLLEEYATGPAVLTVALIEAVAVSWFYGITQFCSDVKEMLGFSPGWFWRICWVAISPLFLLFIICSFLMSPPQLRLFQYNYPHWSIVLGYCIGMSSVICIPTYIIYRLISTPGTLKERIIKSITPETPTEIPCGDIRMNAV
# assay comment: Inhibition of serotonin uptake (in vitro): inhibition of synaptosomal reuptake of tritiated serotonin
# Format: biochemical
Where a name gives a salt, the structure may show the parent alone.
Items are presented alongside their recorded IC50.
endpoint: IC50 (nM)

[[record]]
compound = "FC(F)(F)c1cccc(N2CCN(CCCCc3c[nH]c4ccccc34)CC2)n1 [Example 32]"
measured_number = 259

[[record]]
compound = "Clc1cccc(N2CCN(CCCc3c[nH]c4ccccc34)CC2)n1 [Example 19, hydrochloride]"
measured_number = 98

[[record]]
compound = "COc1cccnc1N1CCN(CCc2c[nH]c3ccc(F)cc23)CC1 [Example 39]"
measured_number = 0.2


---

# tested on: serotonin uptake (Rattus norvegicus, UniProt P31652)
# assay comment: Inhibition of serotonin uptake (in vitro): inhibition of synaptosomal reuptake of tritiated serotonin
pIC50: −log10 of the molar value.
Binary classification by pIC50, with 7 as an inclusive lower bound for 1 (yes); all other cases are 0 (no).

[[record]]
compound = "COc1cccnc1N1CCN(CCc2c[nH]c3ccccc23)CC1 [Example 18]"
label_value = "1 (yes)"

[[record]]
compound = "COc1ccc2[nH]cc(CCN3CCN(c4cccc(C(F)(F)F)n4)CC3)c2c1 [Example 44]"
label_value = "0 (no)"

[[record]]
compound = "COc1cccnc1N1CCN(CCCc2cn(C)c3ccccc23)CC1 [Example 50]"
label_value = "1 (yes)"


---

# tested on: serotonin uptake (Rattus norvegicus)
# assay comment: Inhibition of serotonin uptake (in vitro): inhibition of synaptosomal reuptake of tritiated serotonin
Counter-ions that a name gives are not always drawn.
Items are presented alongside their recorded IC50.
endpoint: IC50 (nM)

[[record]]
compound = "COc1ccc2c(CCN3CCN(c4ncccc4OC)CC3)c[nH]c2c1"
tested_on = "serotonin uptake (Rattus norvegicus)"
result_unit = "nM"
measured_number = 35.9

[[record]]
compound = "FC(F)(F)c1cccnc1N1CCN(CCc2c[nH]c3ccccc23)CC1 [Example 17, hydrochloride]"
tested_on = "serotonin uptake (Rattus norvegicus)"
result_unit = "nM"
measured_number = 37

[[record]]
compound = "Clc1cccnc1N1CCN(CCc2c[nH]c3ccccc23)CC1"
tested_on = "serotonin uptake (Rattus norvegicus)"
result_unit = "nM"
measured_number = 520

[[record]]
compound = "Clc1cccc(N2CCN(CCCCc3c[nH]c4ccccc34)CC2)n1"
tested_on = "serotonin uptake (Rattus norvegicus)"
result_unit = "nM"
measured_number = 27

[[record]]
compound = "NC(=O)c1ccc2[nH]cc(C3=CCC(N4CCN(c5cccc(Cl)n5)CC4)CC3)c2c1 (stereo not drawn)"
tested_on = "serotonin uptake (Rattus norvegicus)"
result_unit = "nM"
measured_number = 27

[[record]]
compound = "Fc1ccc2[nH]cc(CCN3CCN(c4cccc(C(F)(F)F)n4)CC3)c2c1"
tested_on = "serotonin uptake (Rattus norvegicus)"
result_unit = "nM"
measured_number = 73

[[record]]
compound = "COc1ccc2[nH]cc(C3=CCC(N4CCN(c5cccc(Cl)n5)CC4)CC3)c2c1 (stereo not drawn)"
tested_on = "serotonin uptake (Rattus norvegicus)"
result_unit = "nM"
measured_number = 99

[[record]]
compound = "COc1cccnc1N1CCN(CCCCc2c[nH]c3ccccc23)CC1 [Example 21, dihydrochloride]"
tested_on = "serotonin uptake (Rattus norvegicus)"
result_unit = "nM"
measured_number = 58

[[record]]
compound = "FC(F)(F)c1cccc(N2CCN(CCc3c[nH]c4ccc(Cl)cc34)CC2)n1"
tested_on = "serotonin uptake (Rattus norvegicus)"
result_unit = "nM"
measured_number = 437

